The reader will find reported IC50 values listed item by item below.
Target: Protein arginine deiminase 4 (PAD4) (Homo sapiens)
Experiment: PAD4 ammonia release assay
Assay type: biochemical
Details: PAD4 ammonia release assay, BAEE substrate, 60 min at RT; read-out: Average IC50 Abs
Protocol: 1) Compound preparation: The compounds were diluted to 80× final concentrations. 2) The compounds were transferred to a 384-well assay plate by Tecan. DMSO: 1.25%. […] The percent (%) inhibition at each concentration of compound was calculated based on and relative to the signal in the HPE (50 μM ref. compound) and ZPE (1.25% DMSO) wells included within each assay plate. […] The endpoint value (IC50) for the reference compound was evaluated in each experiment as a quality control measure. […]

Here's what some known entries look like.
> print(dat)
                                   compound  measurename          value
1  CCC1CN(CCCO)c2cccc3cc(-c4nc5cc(C(=O)N6C[C@H](N)C[C@@H](F)C6)cc(OC)c5n4C)n1c23 (single isomer, unassigned) [Example 82]         IC50       ≤ 100 nM
2  Cn1c(-c2cc3cccc4c3n2C(C2CC2)CN4CCCO)nc2cc(C(=O)N3C[C@H]4CC[C@@H]3[C@@H]4N)cc(F)c21 (mixture of isomers)         IC50       ≤ 100 nM
3  COc1cc(C(=O)N2C[C@H](N)C[C@@H](F)C2)cc2nc(-c3cc4cccc5c4n3CCN5CCCO)n(Cc3ccc(F)cc3)c12         IC50  100 to 500 nM

Query: # input compound: COc1cc(C(=O)N2C[C@H](N)C[C@@H](F)C2)cc2nc(-c3cc4cccc5c4n3CCN5C(=O)COC(C)=O)n(C)c12 ; wanted: its IC50
Result: 500 to 5000 nM

----------
The reader will find reported IC50 values listed item by item below.
biological target: Protein arginine deiminase 4 (PAD4) (Homo sapiens); experiment: PAD4 ammonia release assay; assay type: biochemical; details: PAD4 ammonia release assay, BAEE substrate, 60 min at RT; read-out: Average IC50 Abs

> print(dat)
                                   compound           value
1  COCCCN1CCn2c(-c3nc4cc(C(=O)N5CCC[C@@H](N)C5)cc(OC)c4n3C)cc3cccc1c32  500 to 5000 nM
2  Cn1c(-c2cc3cccc4c3n2[C@@H](C2CC2)CN4CCCO)nc2cc(C(=O)N3C[C@H]4CC[C@@H]3[C@@H]4N)cc(F)c21 (single isomer, unassigned)        ≤ 100 nM
3  C#CCn1c(-c2cc3cccc4c3n2C(CC)CN4CCCO)nc2cc(C(=O)N3C[C@H](N)C[C@@H](F)C3)cc(OC)c21 (stereo partly shown)   100 to 500 nM

Query: # input compound: CCC1CN(CCCO)c2cccc3cc(-c4nc5cc(C(=O)N6C[C@H](N)C[C@@H](F)C6)cc(F)c5n4C)n1c23 (stereo partly shown) ; wanted: its IC50
Result: 100 to 500 nM

Query: Follow-up entry: Cn1c(-c2cc3ccc4c(Cl)c[nH]c4c3n2CC2CC2)nc2cc(C(=O)N3C[C@H]4CC[C@@H]3[C@@H]4N)cc(F)c21
Result: 500 to 5000 nM

Query: Follow-up entry: CCC1CNc2c(C)ccc3cc(-c4nc5cc(C(=O)N6C[C@H]7CC[C@@H]6[C@@H]7N)cc(F)c5n4C)n1c23 (stereo partly shown)
Result: 100 to 500 nM

Query: Follow-up entry: CCn1cc(Cn2c(-c3cc4cccc5c4n3CCN5CCCO)nc3cc(C(=O)N4C[C@H]5CC[C@@H]4[C@@H]5N)cc(F)c32)cn1
Result: 100 to 500 nM

Query: Follow-up entry: CC[C@@H]1CN(CCCO)c2cccc3cc(-c4nc5cc(C(=O)N6C[C@H]7CC[C@@H]6[C@@H]7N)cc(F)c5n4C)n1c23
Result: > 5000 nM

Query: Follow-up entry: COc1cc(C(=O)N2C[C@H]3CC[C@@H]2[C@@H]3N)cc2nc(-c3cc4cccc5c4n3CCN5CCCO)n(Cc3cnn(C)c3)c12
Result: > 5000 nM

Query: Follow-up entry: Cc1nnc2c3c(ccn12)cc(-c1nc2cc(C(=O)N4C[C@H]5CC[C@@H]4[C@@H]5N)cc(F)c2n1C)n3CC1CC1
Result: 500 to 5000 nM

Query: Follow-up entry: C#CCn1c(-c2cc3cccc4c3n2CCN4CCCO)nc2cc(C(=O)N3C[C@H](N)C[C@@H](F)C3)cc(OC)c21
Result: 100 to 500 nM

Query: Follow-up entry: Cn1c(-c2cc3ccc(S(C)(=O)=O)c4c3n2C(C2CC2)CN4)nc2cc(C(=O)N3C[C@H]4CC[C@@H]3[C@@H]4N)cc(F)c21 (stereo partly shown)
Result: ≤ 100 nM

Query: Follow-up entry: COc1cc(C(=O)N2CCC[C@@](C)(N)C2)cc2nc(-c3cc4cccc5c4n3CCN5CCCO)n(C)c12
Result: > 5000 nM

Query: Follow-up entry: CC(C)N1CCc2c(ccc3cc(-c4nc5cc(C(=O)N6C[C@H]7CC[C@@H]6[C@@H]7N)cc(F)c5n4C)n(CC4CC4)c23)C1
Result: 500 to 5000 nM

Query: Follow-up entry: Cn1c(-c2cc3ccc4c(c3n2CC2CC2)CCCN4)nc2cc(C(=O)N3C[C@H]4CC[C@@H]3[C@@H]4N)cc(F)c21
Result: 100 to 500 nM

----------
The reader will find reported IC50 values listed item by item below.
molecular target: UniProt Q9UM07; assay: PAD4 ammonia release assay; format: biochemical; conditions: PAD4 ammonia release assay, BAEE substrate, 60 min at RT; read-out: Average IC50 Abs

Here's what some known entries look like.
> print(dat)
                                   compound      targetdesc          value
1  COc1cc(C(=O)N2CCC[C@@H](N)C2)cc2nc(-c3cc4cccc5c4n3CCN5)n(C)c12  UniProt Q9UM07         > 5 µM
2  CC(C)C1CN(C)c2cccc3cc(-c4nc5cc(C(=O)N6C[C@H]7CC[C@@H]6[C@@H]7N)cc(F)c5n4C)n1c23 (stereo partly drawn)  UniProt Q9UM07  0.1 to 0.5 µM

// below: IC50 requested for another compound
Query: # input compound: Cn1c(-c2cc3c(C#N)ccc4c3n2[C@H](C2CC2)CN4)nc2cc(C(=O)N3C[C@H]4CC[C@@H]3[C@@H]4N)cc(F)c21 ; wanted: its IC50
Result: > 5 µM

----------
molecular target: Protein arginine deiminase 4 (PAD4) (Homo sapiens); assay: PAD4 ammonia release assay; format: biochemical; details: PAD4 ammonia release assay, BAEE substrate, 60 min at RT; read-out: Average IC50 Abs
pIC50: −log10 of the molar value.
measureName: pIC50

Query: # input compound: Cn1c(-c2cc3cccc4c3n2CCN4)nc2cc(C(=O)N3CCC[C@@H](N)C3)ccc21 ; wanted: its pIC50
Result: < 5.30

Query: Follow-up entry: Cn1c(-c2cc3ccc4c(c3n2CC2CC2)NCCO4)nc2cc(C(=O)N3C[C@H]4CC[C@@H]3[C@@H]4N)cc(F)c21
Result: ≥ 7.00

Query: Follow-up entry: CCn1cc(Cn2c(-c3cc4cccc5c4n3CCN5)nc3cc(C(=O)N4C[C@H](N)C[C@@H](F)C4)cc(F)c32)cn1
Result: 6.30 to 7.00

----------
The reader will find reported pIC50 values listed item by item below.
biological target: Protein arginine deiminase 4 (PAD4) (Homo sapiens, UniProt Q9UM07); test: PAD4 ammonia release assay; type: biochemical; settings: PAD4 ammonia release assay, BAEE substrate, 60 min at RT; read-out: Average IC50 Abs
Sequence (Q9UM07 whole entry): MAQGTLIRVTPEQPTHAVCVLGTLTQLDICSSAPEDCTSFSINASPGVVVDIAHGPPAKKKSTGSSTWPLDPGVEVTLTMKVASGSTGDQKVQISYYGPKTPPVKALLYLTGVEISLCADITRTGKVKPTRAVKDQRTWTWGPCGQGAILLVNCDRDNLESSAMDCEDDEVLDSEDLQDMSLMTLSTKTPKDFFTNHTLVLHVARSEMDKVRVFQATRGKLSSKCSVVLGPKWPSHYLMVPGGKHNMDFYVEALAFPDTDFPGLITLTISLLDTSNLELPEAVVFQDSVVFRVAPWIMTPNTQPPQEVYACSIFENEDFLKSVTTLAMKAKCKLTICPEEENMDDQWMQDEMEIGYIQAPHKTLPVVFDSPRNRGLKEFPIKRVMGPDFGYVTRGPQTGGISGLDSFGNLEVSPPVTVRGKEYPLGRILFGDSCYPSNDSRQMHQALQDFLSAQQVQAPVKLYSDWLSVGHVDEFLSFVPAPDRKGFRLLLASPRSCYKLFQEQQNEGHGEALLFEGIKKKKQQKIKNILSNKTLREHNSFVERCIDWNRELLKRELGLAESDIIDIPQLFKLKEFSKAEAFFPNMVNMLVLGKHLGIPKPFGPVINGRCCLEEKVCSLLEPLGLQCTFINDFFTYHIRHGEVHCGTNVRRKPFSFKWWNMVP
pIC50: −log10 of the molar value.

Here's what some known entries look like.
> print(dat)
                                   compound         value
1  Cn1c(-c2cc3cccc4c3n2CCN4)nc2cc(C(=O)N3C[C@H]4CC[C@@H]3[C@@H]4N)ccc21  5.30 to 6.30
2  CCC1C(=O)Nc2c(C#N)ccc3cc(-c4nc5cc(C(=O)N6C[C@H]7CC[C@@H]6[C@@H]7N)cc(F)c5n4C)n1c23 (stereo partly shown)  5.30 to 6.30
3  CCC1CN(CCCO)c2cccc3cc(-c4nc5cc(C(=O)N6C[C@H](N)C[C@@H](F)C6)cc(OC)c5n4C)n1c23 (stereo partly shown) [Example 80]  6.30 to 7.00

Query: # input compound: Cn1c(-c2cc3ccc4cc[nH]c4c3n2CC2CCC2)nc2cc(C(=O)N3C[C@H]4CC[C@@H]3[C@@H]4N)cc(F)c21 ; wanted: its pIC50
Result: ≥ 7.00
